experiment: In vivo pharmacokinetics in plasma and hippocampus (LC-MS/MS); parameters: species or system C57BL mice; conditions: C57BL, mouse, plasma and hippocampus; 3 mg/kg, po; matrix not given; read-out: Tmax of a single oral dose
Result type: Tmax

Recorded result, O=C1c2cc(-c3nnc(C(F)F)o3)cnc2CN1[C@@H]1CCCC[C@H]1NC(=O)C(F)(F)C(F)(F)F , Tmax: ≤ 15 min

###

assay: In vivo pharmacokinetics in plasma and hippocampus (LC-MS/MS); set-up: species or system C57BL mice; conditions: mouse, hippocampus; C57BL mice, 3 mg/kg, po; read-out: Hippocampus Tmax
Result type: Tmax

Recorded result, O=C1c2cc(-c3nnc(C(F)F)o3)cnc2CN1[C@@H]1CCCC[C@H]1NC(=O)C(F)(F)C(F)(F)F , Tmax: 15 min

###

test: In vivo pharmacokinetics in plasma and hippocampus (LC-MS/MS); parameters: species or system C57BL mice; conditions: mouse, plasma; C57BL mice, 3 mg/kg, po; read-out: Plasma Cmax
Result type: Cmax

Recorded result, O=C1c2cc(-c3nnc(C(F)F)o3)cnc2CN1[C@@H]1CCCC[C@H]1NC(=O)C(F)(F)C(F)(F)F , Cmax: 1040 ng/mL

###

test: In vivo pharmacokinetics in plasma and hippocampus (LC-MS/MS); set-up: species or system C57BL mice; conditions: mouse, plasma; C57BL mice, 3 mg/kg, po; read-out: Plasma AUC0–24 h
Result type: AUC(0-t) (µg·h/mL)
Give the quantity in µg·h/mL, number only.

Recorded result, O=C1c2cc(-c3nnc(C(F)F)o3)cnc2CN1[C@@H]1CCCC[C@H]1NC(=O)C(F)(F)C(F)(F)F , AUC(0-t): 1.72

###

assay: In vivo pharmacokinetics in plasma and hippocampus (LC-MS/MS); parameters: species or system C57BL mice; conditions: mouse, hippocampus; C57BL mice, 3 mg/kg, po; read-out: Hippocampus Cmax
Result type: Cmax (ng/g)
Give the quantity in ng/g, number only.

Recorded result, O=C1c2cc(-c3nnc(C(F)F)o3)cnc2CN1[C@@H]1CCCC[C@H]1NC(=O)C(F)(F)C(F)(F)F , Cmax: 144

###

assay: In vivo pharmacokinetics in plasma and hippocampus (LC-MS/MS); design: species or system C57BL mice; details: mouse, plasma; C57BL mice, 3 mg/kg, po; read-out: Plasma Tmax
Result type: Tmax (min)
Give the quantity in min, number only.

Recorded result, O=C1c2cc(-c3nnc(C(F)F)o3)cnc2CN1[C@@H]1CCCC[C@H]1NC(=O)C(F)(F)C(F)(F)F [T-518] , Tmax: 15

Data origin, for the record: paper PMC8322070
